# Test system: MOLT-4
# measurementProtocol: NCI tumour cell line growth inhibition, 48 h
Active and inactive are the calls of the source. Rule as the data show it: active = GI50 up to about 1.1 µM and inactive = higher.
Outcomes: active, inactive

{"columns": ["compound", "groupLabel"],
 "data": [
  ["C/C(=C\\[C@H]1C[C@@H]([C@@H]2CC[C@]34C[C@]23C=C[C@@H]2[C@@]3(C)CC=C5C[C@@H](c6ccccc6)OC[C@]5(C)[C@@H]3C[C@@H](O)[C@]24C)C(=O)O1)CO [DICHAPETALIN A]", "inactive"],
  ["O=C1CN2CCN(CC2)CC(=O)Nc2ccc(cc2)S(=O)(=O)c2ccc(cc2)NC(=O)CN2CCN(CC2)CC(=O)Nc2ccc(cc2)S(=O)(=O)c2ccc(cc2)N1", "inactive"],
  ["Cc1cc(=O)oc2c(C)c3oc(CBr)c(Br)c3cc12", "inactive"],
  ["Cc1cc(NC(=O)NC(=O)c2ccccc2N(C)C)ccc1Oc1ncc(Br)cn1", "active"],
  ["COc1ccc2c(c1)c1cc(OC)ccc1n2CCCCOc1ccc(-c2c3ccccc3c(-c3ccc(OCCCCn4c5ccc(OC)cc5c5cc(OC)ccc54)cc3)c3ccccc23)cc1", "inactive"],
  ["O=C1/C(=C/c2ccc(O)cc2)CC/C1=C\\c1ccc(O)cc1", "inactive"],
  ["OC(c1ccccc1)c1c(-c2ccccc2)[nH]c(-c2ccccc2)c1C(O)c1ccccc1 (stereo not drawn)", "inactive"],
  ["C[C@]12CCC(=O)C=C1CC[C@@H]1[C@@H]2CC[C@]2(C)C(=O)/C(=C\\c3ccccc3)C[C@@H]12", "inactive"]
]}
